Biological target: Proto-oncogene tyrosine-protein kinase ROS (Homo sapiens)
Sequence (P08922 whole entry): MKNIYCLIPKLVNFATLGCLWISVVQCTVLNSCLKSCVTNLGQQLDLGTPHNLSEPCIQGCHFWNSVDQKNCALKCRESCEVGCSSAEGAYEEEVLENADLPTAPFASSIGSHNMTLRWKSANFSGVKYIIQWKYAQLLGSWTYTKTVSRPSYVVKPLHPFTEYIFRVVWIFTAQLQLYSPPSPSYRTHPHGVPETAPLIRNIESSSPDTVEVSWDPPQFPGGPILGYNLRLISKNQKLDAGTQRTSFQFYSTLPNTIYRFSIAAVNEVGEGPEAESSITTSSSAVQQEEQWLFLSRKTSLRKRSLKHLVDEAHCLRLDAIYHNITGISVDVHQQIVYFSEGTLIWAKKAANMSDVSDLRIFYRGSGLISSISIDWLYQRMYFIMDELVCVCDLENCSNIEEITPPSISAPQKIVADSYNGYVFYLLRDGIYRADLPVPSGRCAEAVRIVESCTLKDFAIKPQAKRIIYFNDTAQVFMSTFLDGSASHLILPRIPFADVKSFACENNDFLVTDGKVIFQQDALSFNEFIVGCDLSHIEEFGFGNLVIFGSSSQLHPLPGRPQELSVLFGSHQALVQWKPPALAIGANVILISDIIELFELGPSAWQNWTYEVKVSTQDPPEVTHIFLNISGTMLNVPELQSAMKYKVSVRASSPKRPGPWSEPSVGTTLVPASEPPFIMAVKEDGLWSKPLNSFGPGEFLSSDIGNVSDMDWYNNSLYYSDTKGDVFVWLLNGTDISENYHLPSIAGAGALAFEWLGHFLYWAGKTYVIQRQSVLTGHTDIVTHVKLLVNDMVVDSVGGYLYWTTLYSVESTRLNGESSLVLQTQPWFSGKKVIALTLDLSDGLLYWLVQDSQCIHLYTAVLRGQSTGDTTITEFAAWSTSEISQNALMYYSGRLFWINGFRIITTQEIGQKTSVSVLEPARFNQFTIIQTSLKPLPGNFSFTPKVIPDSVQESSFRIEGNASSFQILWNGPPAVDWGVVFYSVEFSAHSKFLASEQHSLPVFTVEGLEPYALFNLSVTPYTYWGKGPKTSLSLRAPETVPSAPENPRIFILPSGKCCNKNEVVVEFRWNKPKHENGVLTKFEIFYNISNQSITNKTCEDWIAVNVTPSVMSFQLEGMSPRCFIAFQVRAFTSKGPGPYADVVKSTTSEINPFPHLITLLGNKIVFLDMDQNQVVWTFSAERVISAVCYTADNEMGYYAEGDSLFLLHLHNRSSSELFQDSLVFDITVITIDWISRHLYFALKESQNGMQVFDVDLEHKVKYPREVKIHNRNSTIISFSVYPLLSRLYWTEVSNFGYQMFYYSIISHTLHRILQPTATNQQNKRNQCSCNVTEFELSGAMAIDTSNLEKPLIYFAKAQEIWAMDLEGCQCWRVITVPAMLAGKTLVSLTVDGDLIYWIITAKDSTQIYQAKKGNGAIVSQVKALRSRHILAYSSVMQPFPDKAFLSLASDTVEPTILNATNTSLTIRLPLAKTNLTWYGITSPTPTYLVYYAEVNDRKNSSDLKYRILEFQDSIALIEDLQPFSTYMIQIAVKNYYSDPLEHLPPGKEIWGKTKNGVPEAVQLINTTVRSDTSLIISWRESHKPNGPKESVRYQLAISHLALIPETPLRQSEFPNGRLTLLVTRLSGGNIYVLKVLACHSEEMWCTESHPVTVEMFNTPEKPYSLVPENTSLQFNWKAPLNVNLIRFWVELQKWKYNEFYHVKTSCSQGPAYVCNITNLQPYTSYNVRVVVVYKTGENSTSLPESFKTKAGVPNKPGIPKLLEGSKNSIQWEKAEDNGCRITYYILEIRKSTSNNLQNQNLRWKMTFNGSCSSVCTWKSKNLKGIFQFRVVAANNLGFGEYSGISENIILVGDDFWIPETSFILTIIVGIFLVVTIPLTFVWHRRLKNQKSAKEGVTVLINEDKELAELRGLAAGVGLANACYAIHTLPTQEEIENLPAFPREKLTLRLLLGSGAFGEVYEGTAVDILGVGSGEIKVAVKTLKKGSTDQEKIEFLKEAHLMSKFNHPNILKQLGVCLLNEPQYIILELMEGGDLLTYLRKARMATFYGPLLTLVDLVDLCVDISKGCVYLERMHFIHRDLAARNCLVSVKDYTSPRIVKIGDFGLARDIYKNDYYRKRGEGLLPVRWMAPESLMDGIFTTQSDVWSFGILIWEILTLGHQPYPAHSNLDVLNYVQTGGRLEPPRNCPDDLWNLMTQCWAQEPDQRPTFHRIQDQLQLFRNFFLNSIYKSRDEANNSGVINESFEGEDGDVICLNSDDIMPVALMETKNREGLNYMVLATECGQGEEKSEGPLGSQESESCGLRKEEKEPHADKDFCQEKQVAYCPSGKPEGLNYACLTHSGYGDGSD
pIC50: −log10 of the molar value.
property: pIC50

{"smiles-str": "COc1ccc(Nc2nccc(-c3cn(C)c4ccccc34)n2)cc1OCCOCCn1ccnc1[N+](=O)[O-]", "reported": 6.97}

* * *

Biological target: Platelet-derived growth factor receptor alpha (Homo sapiens, UniProt P16234)
Sequence (P16234 whole entry): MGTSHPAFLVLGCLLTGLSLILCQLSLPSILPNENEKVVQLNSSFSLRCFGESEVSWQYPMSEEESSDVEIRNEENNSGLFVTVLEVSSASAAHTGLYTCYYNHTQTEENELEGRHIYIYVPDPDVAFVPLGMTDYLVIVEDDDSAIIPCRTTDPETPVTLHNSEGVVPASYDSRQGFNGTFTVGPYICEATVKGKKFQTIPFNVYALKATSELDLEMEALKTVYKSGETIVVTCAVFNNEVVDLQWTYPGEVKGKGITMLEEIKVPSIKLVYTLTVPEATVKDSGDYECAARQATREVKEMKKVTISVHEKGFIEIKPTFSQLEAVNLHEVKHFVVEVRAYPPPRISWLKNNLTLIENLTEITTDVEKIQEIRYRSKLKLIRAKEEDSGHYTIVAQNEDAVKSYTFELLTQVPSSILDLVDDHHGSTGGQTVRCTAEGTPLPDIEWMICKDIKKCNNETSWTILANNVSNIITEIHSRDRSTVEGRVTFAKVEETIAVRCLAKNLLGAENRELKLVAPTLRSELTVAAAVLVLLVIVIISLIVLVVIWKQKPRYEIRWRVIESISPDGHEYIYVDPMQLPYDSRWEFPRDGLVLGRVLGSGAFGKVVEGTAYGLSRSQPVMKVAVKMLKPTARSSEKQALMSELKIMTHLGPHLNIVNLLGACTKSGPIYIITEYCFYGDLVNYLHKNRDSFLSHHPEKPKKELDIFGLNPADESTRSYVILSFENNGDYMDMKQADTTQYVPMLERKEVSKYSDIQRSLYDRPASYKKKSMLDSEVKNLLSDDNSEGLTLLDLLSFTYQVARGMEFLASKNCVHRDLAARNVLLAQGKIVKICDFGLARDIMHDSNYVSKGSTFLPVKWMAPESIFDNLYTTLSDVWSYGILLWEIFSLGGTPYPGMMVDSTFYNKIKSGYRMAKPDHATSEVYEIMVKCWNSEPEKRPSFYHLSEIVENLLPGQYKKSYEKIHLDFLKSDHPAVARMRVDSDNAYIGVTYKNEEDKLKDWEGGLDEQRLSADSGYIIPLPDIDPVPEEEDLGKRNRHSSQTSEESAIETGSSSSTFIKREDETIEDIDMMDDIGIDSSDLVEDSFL
property: IC50

{"smiles-str": "COc1ccc(Nc2nccc(-c3cn(C)c4ccccc34)n2)cc1OCCOCCn1ccnc1[N+](=O)[O-]", "property": "IC50", "reported": "42.5 nM"}

* * *

Test system: HCC827
Test: Antiproliferative activity against human HCC827 cells harboring EGFR del19 mutant assessed as inhibition of cell growth incubated for 72 hrs under hypoxia condition by SRB assay
Format: functional, cell-based
Conditions: HCC827, 72 h

{"smiles-str": "Cn1cc(-c2ccnc(Nc3cc(OCCOCCn4ccnc4[N+](=O)[O-])ccc3F)n2)c2ccccc21", "output-unit": "nM", "IC50": 6.28}
{"smiles-str": "COc1ccc(Nc2nccc(-c3cn(C)c4ccccc34)n2)cc1OCCOCCn1ccnc1[N+](=O)[O-]", "output-unit": "nM", "IC50": 5.26}
{"smiles-str": "C=CC(=O)Nc1cc(Nc2nccc(-c3cn(C)c4ccccc34)n2)c(OC)cc1N(C)CCN(C)C", "output-unit": "nM", "IC50": 32.3}

* * *

Experiment: Selectivity index, ratio of IC50 for inhibition of wild type EGFR (unknown origin) to IC50 for inhibition of EGFR L858R/T790M mutant (unknown origin)
We label by threshold. Values of Ratio IC50 strictly beneath 20 are rule met. Values of 20 and up are rule not met.

{"smiles-str": "Cn1cc(-c2ccnc(Nc3cccc(OCCCCn4cnc([N+](=O)[O-])c4)c3)n2)c2ccccc21", "class-label": "rule met"}
{"smiles-str": "Cn1cc(-c2ccnc(Nc3cccc(OCCOCCn4ccnc4[N+](=O)[O-])c3)n2)c2ccccc21", "class-label": "rule met"}
{"smiles-str": "Cn1cc(-c2ccnc(Nc3ccc(OCCOCCn4ccnc4[N+](=O)[O-])cc3)n2)c2ccccc21", "class-label": "rule met"}
{"smiles-str": "Cn1cc(-c2ccnc(Nc3cccc(OCCCCn4ccnc4[N+](=O)[O-])c3)n2)c2ccccc21", "class-label": "rule met"}
{"smiles-str": "CC(=O)c1ccc(Nc2nccc(-c3cn(C)c4ccccc34)n2)cc1OCCOCCn1ccnc1[N+](=O)[O-]", "class-label": "rule not met"}

* * *

Consider the following compounds and their measured IC50 readings.
Biological target: Epidermal growth factor receptor (Homo sapiens, UniProt P00533, L858R/T790M)
Sequence (P00533 25-1210 T790M/L858R limits assumed): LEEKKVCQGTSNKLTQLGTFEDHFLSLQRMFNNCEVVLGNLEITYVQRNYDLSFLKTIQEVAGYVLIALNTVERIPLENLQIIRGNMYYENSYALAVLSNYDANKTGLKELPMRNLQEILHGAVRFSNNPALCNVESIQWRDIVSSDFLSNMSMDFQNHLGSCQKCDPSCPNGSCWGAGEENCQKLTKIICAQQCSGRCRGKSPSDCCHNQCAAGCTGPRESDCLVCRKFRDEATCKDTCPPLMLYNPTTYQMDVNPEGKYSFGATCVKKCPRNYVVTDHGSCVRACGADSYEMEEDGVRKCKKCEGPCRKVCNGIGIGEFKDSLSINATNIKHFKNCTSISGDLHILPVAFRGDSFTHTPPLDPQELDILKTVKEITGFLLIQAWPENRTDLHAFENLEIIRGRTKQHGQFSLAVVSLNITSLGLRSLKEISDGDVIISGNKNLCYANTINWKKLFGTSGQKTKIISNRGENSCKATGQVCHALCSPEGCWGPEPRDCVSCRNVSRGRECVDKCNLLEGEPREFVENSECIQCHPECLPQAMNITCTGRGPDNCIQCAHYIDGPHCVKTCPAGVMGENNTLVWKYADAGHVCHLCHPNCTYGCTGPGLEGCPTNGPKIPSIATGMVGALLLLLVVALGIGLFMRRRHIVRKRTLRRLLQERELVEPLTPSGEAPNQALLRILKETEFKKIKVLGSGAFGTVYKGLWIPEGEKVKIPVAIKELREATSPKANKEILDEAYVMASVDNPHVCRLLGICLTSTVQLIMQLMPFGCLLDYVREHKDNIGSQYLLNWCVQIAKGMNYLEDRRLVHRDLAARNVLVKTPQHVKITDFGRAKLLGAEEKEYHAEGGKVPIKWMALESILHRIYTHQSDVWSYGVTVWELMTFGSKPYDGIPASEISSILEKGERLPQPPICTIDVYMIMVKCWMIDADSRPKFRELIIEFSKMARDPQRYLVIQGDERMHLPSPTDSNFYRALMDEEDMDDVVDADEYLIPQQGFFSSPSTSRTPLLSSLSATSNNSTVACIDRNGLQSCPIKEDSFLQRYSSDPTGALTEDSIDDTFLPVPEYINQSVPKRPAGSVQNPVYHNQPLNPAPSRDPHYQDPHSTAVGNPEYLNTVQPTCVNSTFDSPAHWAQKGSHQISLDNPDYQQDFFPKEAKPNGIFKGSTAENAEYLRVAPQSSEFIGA
Experiment: Inhibition of EGFR L858R/T790M mutant (unknown origin) by mobility shift assay

{"smiles-str": "Cn1cc(-c2ccnc(Nc3ccc(OCCCCn4cnc([N+](=O)[O-])c4)c(F)c3)n2)c2ccccc21", "IC50, nM": 829}
{"smiles-str": "Cc1cc(Nc2nccc(-c3cn(C)c4ccccc34)n2)ccc1OCCOCCn1ccnc1[N+](=O)[O-]", "IC50, nM": 456}
{"smiles-str": "Cn1cc(-c2ccnc(Nc3cc(OCCOCCn4ccnc4[N+](=O)[O-])ccc3F)n2)c2ccccc21", "IC50, nM": 199}
{"smiles-str": "CC(=O)c1ccc(Nc2nccc(-c3cn(C)c4ccccc34)n2)cc1OCCOCCn1ccnc1[N+](=O)[O-]", "IC50, nM": 262}
{"smiles-str": "Cn1cc(-c2ccnc(Nc3ccc(OCCCCn4ccnc4[N+](=O)[O-])cc3)n2)c2ccccc21", "IC50, nM": 1180}
{"smiles-str": "Cn1cc(-c2ccnc(Nc3cccc(OCCCCn4ccnc4[N+](=O)[O-])c3)n2)c2ccccc21", "IC50, nM": 227}
{"smiles-str": "Cn1cc(-c2ccnc(Nc3ccc(OCCOCCn4ccnc4[N+](=O)[O-])c(F)c3)n2)c2ccccc21", "IC50, nM": 722}
